Recorded S/N Abeta 42 globulomer-spiked/Abeta 40 by entry
- Experimental System: Abeta 42 globulomer (Homo sapiens, UniProt P05067)
- Sequence (P05067 672-713 limits assumed): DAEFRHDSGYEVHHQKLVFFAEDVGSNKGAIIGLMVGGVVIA
- Run Description: NMPA with detergent washing after PSR1 pulldown: globulomer detection
- Assay type: binding
// print number alone

Some solved cases for reference:
>  <Compound>
CCCCCCCCc1ccc(C(=O)NCCC[N+](C)(C)CCCS(=O)(=O)[O-])cc1 [ASB-C8phn]

>  <Parameter>
S/N Abeta 42 globulomer-spiked/Abeta 40

>  <Result Value>
1.4

$$$$
>  <Compound>
CCCCCCCC[N+](C)(C)CCCS(=O)(=O)[O-] [ZW3-08]

>  <Parameter>
S/N Abeta 42 globulomer-spiked/Abeta 40

>  <Result Value>
0.9

$$$$
>  <Compound>
CCCCCCCCCCCCCC(=O)NCCC[N+](C)(C)CCCS(=O)(=O)[O-] [ASB-14]

>  <Parameter>
S/N Abeta 42 globulomer-spiked/Abeta 40

>  <Result Value>
2.0

$$$$

Next:
State its S/N Abeta 42 globulomer-spiked/Abeta 40 for this compound: CCCCCCCCCCCCCCCC(=O)NCCC[N+](C)(C)CCCS(=O)(=O)[O-] [ASB-16] 2.8
